Data provenance is patent US20080119513A1.

System name: MMP-13 (Homo sapiens, UniProt P45452)
Construct: catalytic domain (^104Tyr˜^267Gly) was amplified with RT-PCR; His-tag; enterokinase digestion-site
Experiment summary: Assay for inhibitory activities on MMPs (fluorogenic peptide substrate), MMP-13
Result type: pIC50
Give only the number. pIC50 is defined as minus log10 of concentration in molar units.

Example results:
# Compound, System name, pIC50
data = [
    ("CCC(C)[C@H](NS(=O)(=O)c1ccc(-c2ccc(C#Cc3ccc4cc(OC)ccc4c3)cc2)cc1)C(=O)O (stereo partly drawn) [III-23]", "MMP-13 (Homo sapiens, UniProt P45452)", 7.79),
    ("COCC(NS(=O)(=O)c1ccc(-c2ccc(C#Cc3ccc4cc(OC)ccc4c3)cc2)cc1)C(=O)O (stereo not drawn) [III-50]", "MMP-13 (Homo sapiens, UniProt P45452)", 7.86),
    ("COc1ccc2cc(COc3ccc(-c4ccc(S(=O)(=O)N[C@@H](C)C(=O)O)cc4)cc3)ccc2c1 [VII-10]", "MMP-13 (Homo sapiens, UniProt P45452)", 7.78),
    ("C[C@H](NS(=O)(=O)c1ccc(-c2ccc(C#Cc3ccc4ccccc4c3)cc2)cc1)C(=O)O [III-3]", "MMP-13 (Homo sapiens, UniProt P45452)", 8.10),
    ("COc1ccc2cc(C#Cc3ccc(-c4ccc(S(=O)(=O)N[C@@H](C(=O)O)C(C)C)cc4)cc3)ccc2c1 [III-20]", "MMP-13 (Homo sapiens, UniProt P45452)", 7.82),
]

Name the value of pIC50 reported for COc1ccc2cc(C#Cc3ccc(-c4ccc(S(=O)(=O)N[C@H](Cc5ccc(O)cc5)C(=O)O)cc4)cc3)ccc2c1 [III-46] when tested on MMP-13 (Homo sapiens, UniProt P45452). 8.04

Name the value of pIC50 reported for O=C(O)[C@H](CO)NS(=O)(=O)c1ccc(-c2ccc(C#Cc3ccc4[nH]ccc4c3)cc2)cc1 [III-56] when tested on MMP-13 (Homo sapiens, UniProt P45452). 8.22

Name the value of pIC50 reported for COc1ccc2cc(C#Cc3ccc(-c4ccc(S(=O)(=O)N[C@H](Cc5ccccc5)C(=O)O)cc4)cc3)ccc2c1 [III-28] when tested on MMP-13 (Homo sapiens, UniProt P45452). 7.80

Name the value of pIC50 reported for COCc1cccc(C#Cc2ccc(-c3ccc(S(=O)(=O)N[C@H](C(=O)O)C(C)C)cc3)cc2)c1 [III-63] when tested on MMP-13 (Homo sapiens, UniProt P45452). 8.02

Name the value of pIC50 reported for O=C(O)[C@H](Cc1ccccc1)NS(=O)(=O)c1ccc(-c2ccc(C#Cc3ccc4ccccc4c3)cc2)cc1 [III-12] when tested on MMP-13 (Homo sapiens, UniProt P45452). 7.45

Name the value of pIC50 reported for C[C@@H](NS(=O)(=O)c1ccc(-c2ccc(NC(=O)c3ccc4ccccc4c3)cc2)cc1)C(=O)O [VI-37] when tested on MMP-13 (Homo sapiens, UniProt P45452). 7.42

Name the value of pIC50 reported for O=C(Nc1ccc(-c2ccc(S(=O)(=O)N[C@H](Cc3ccccc3)C(=O)O)cc2)cc1)c1ccc(F)cc1 [VI-6] when tested on MMP-13 (Homo sapiens, UniProt P45452). 7.40
